- protocol-description: Intrinsic clearance in rat liver microsomes at 1 uM incubated for 45 mins in presence of NADPH by LC-MS/MS analysis
- Format: ADME, Microsome
- test-settings: read-out: CLH
Some molecules, each annotated with its measured CLint scaled at 1 µM.

molecule: COc1ccc2c(c1)c(C(=O)Nc1cc(C(=O)O)cc(-c3cnn(C)c3)c1F)cn2C(C)=O
CLint scaled at 1 µM: 189 mL/min/kg
--
molecule: O=C(c1ccc(F)cc1)C1CCN(CCn2c(=O)[nH]c3ccccc3c2=O)CC1
CLint scaled at 1 µM: 159 mL/min/kg
--
molecule: Cc1ncc2n1-c1ccc(Cl)cc1C(c1ccccc1F)=NC2
CLint scaled at 1 µM: 750 mL/min/kg
--
molecule: CC(=O)c1cc(C(=O)Nc2cc(CO)cc(-c3cnn(C4CC4)c3)c2F)c2cc(OC(=O)N(C)C)ccn12
CLint scaled at 1 µM: 63.3 mL/min/kg
--
molecule: COc1ccn2c(C(C)=O)cc(C(=O)Nc3cc(C(C)O)cc(-c4cnn(C5CC5)c4)c3F)c2c1 (stereo not given)
CLint scaled at 1 µM: 54.1 mL/min/kg

###

- Test system: LNCaP C4-2B
- protocol-description: Antiproliferative activity against human LNCaP C4-2B cells assessed as inhibition of cell growth by Celltiter-Glo assay
- Type: functional, cell-based

compound: COc1ccn2c(C(C)=O)cc(C(=O)Nc3cc(C(C)O)cc(-c4cnn(C5CC5)c4)c3F)c2c1 (stereo not given)
sign-qualifier: =
IC50 [µM]: 6.43
--
compound: CC(=O)c1cc(C(=O)Nc2cc(CO)cc(-c3cnn(C)c3)c2F)c2cc(C)ccn12
sign-qualifier: >
IC50 [µM]: 50
--
compound: CC(=O)c1cc(C(=O)Nc2cc(CO)cc(-c3cnn(C)c3)c2F)c2cc(O)ccn12
sign-qualifier: =
IC50 [µM]: 34.2
--
compound: COc1ccn2c(C(C)=O)cc(C(=O)Nc3cc(C=O)cc(-c4cnn(C)c4)c3F)c2c1
sign-qualifier: =
IC50 [µM]: 17.4
--
compound: CNc1ccn2c(C(C)=O)cc(C(=O)Nc3cc(CO)cc(-c4cnn(C)c4)c3F)c2c1
sign-qualifier: >
IC50 [µM]: 50

###

# Cmax values compiled below
- protocol-description: Cmax in Sprague-Dawley rat at 5 mg/kg, iv administered as single dose measured up to 24 hrs
- Type: ADME, organism-based
- Design: time < 24 hrs, dose 5 mg/kg, route iv
- test-settings: in vivo
assay-endpoint: Cmax (ng/mL)

compound: CC(=O)c1cc(C(=O)Nc2cc(C(C)O)cc(-c3cnn(C4CC4)c3)c2F)c2cc(N)ccn12 (configuration not stated)
assay-endpoint: Cmax
val: 2680

compound: COc1ccn2c(C(C)=O)cc(C(=O)Nc3cc(C(C)O)cc(-c4cnn(C5CC5)c4)c3F)c2c1 (configuration not stated)
assay-endpoint: Cmax
val: 8110

###

# pIC50 per record follows
- Tested on: LNCaP C4-2B
- protocol-description: Antiproliferative activity against human LNCaP C4-2B cells assessed as inhibition of cell growth by Celltiter-Glo assay
- Format: functional, cell-based
pIC50: −log10 of the molar value.

compound: COc1ccn2c(C(C)=O)cc(C(=O)Nc3cc(C(F)(F)F)cc(-c4cnn(C)c4)c3F)c2c1
experimental-system: LNCaP C4-2B
sign-qualifier: <
pIC50: 4.30
--
compound: CC(=O)c1cc(C(=O)Nc2cc(CO)cc(-c3cnn(C4CC4)c3)c2F)c2cc(N)ccn12
experimental-system: LNCaP C4-2B
sign-qualifier: =
pIC50: 5.06
--
compound: COc1ccn2c(C(C)=O)cc(C(=O)Nc3cc(Cl)cc(-c4cnn(C)c4)c3F)c2c1
experimental-system: LNCaP C4-2B
sign-qualifier: =
pIC50: 5.03
--
compound: CC(=O)c1cc(C(=O)Nc2cc(CO)cc(-c3cnn(C4CC4)c3)c2F)c2cc(O)ccn12
experimental-system: LNCaP C4-2B
sign-qualifier: =
pIC50: 4.54
--
compound: C[C@@H]1CC(=O)Nc2cccc(-c3ccc4c(c3)c(-c3cnn(C)c3)nn4C)c2N1
experimental-system: LNCaP C4-2B
sign-qualifier: =
pIC50: 5.47
--
compound: CC(=O)c1cc(C(=O)Nc2cc(CO)cc(-c3cnn(C)c3)c2F)c2cc(OCc3ccccc3)ccn12
experimental-system: LNCaP C4-2B
sign-qualifier: =
pIC50: 4.30
--
compound: Cn1cc(-c2cc(CO)cc(NC(=O)c3cc(C(=O)C(C)(C)C)n4ccc(O)cc34)c2F)cn1
experimental-system: LNCaP C4-2B
sign-qualifier: =
pIC50: 4.47
--
compound: CC(=O)c1cc(C(=O)Nc2cc(CO)cc(-c3cnn(C)c3)c2F)c2cc(CN)ccn12
experimental-system: LNCaP C4-2B
sign-qualifier: =
pIC50: 4.87
--
compound: CC(=O)c1cc(C(=O)Nc2cc(C(C)O)cc(-c3cnn(C4CC4)c3)c2F)c2cc(O)ccn12 (centres undefined)
experimental-system: LNCaP C4-2B
sign-qualifier: =
pIC50: 4.38
